Biological target: DNA topoisomerase 1 (Homo sapiens)
Test: Inhibition of human topoisomerase-1 assessed as reduction in enzyme-mediated relaxation of negatively supercoiled pRYG DNA at 100 uM incubated for 30 mins by ethidium bromide staining based gel electrophoresis method
Calls of active or inactive are those of the source. No cut-off for these calls is given here.
Assay endpoint: inhibition

INSERT INTO results (smiles_representation, assay_endpoint, value_reported) VALUES
  ('COc1ccc(-c2ccc3nc(-c4ccc(Cl)cc4)c(NC(C)(C)C)n3c2)cc1', 'inhibition', 'inactive'),
  ('COc1ccc(-c2nc3ccc(-c4ccccc4)cn3c2NC(C)(C)C)cc1', 'inhibition', 'inactive'),
  ('Cc1ccc(-c2ccc3nc(-c4ccc(Cl)cc4)c(NC(C)(C)C)n3c2)cc1', 'inhibition', 'inactive'),
  ('CC(C)(C)Nc1c(-c2ccc(Cl)cc2)nc2ccc(-c3ccccc3)cn12', 'inhibition', 'inactive'),
  ('CC(C)(C)Nc1c(-c2ccc(Cl)cc2)nc2ccc(-c3ccc(F)cc3)cn12', 'inhibition', 'inactive');

###

Biological target: DNA topoisomerase 2-alpha (Homo sapiens, UniProt P11388)
Sequence (P11388 whole entry): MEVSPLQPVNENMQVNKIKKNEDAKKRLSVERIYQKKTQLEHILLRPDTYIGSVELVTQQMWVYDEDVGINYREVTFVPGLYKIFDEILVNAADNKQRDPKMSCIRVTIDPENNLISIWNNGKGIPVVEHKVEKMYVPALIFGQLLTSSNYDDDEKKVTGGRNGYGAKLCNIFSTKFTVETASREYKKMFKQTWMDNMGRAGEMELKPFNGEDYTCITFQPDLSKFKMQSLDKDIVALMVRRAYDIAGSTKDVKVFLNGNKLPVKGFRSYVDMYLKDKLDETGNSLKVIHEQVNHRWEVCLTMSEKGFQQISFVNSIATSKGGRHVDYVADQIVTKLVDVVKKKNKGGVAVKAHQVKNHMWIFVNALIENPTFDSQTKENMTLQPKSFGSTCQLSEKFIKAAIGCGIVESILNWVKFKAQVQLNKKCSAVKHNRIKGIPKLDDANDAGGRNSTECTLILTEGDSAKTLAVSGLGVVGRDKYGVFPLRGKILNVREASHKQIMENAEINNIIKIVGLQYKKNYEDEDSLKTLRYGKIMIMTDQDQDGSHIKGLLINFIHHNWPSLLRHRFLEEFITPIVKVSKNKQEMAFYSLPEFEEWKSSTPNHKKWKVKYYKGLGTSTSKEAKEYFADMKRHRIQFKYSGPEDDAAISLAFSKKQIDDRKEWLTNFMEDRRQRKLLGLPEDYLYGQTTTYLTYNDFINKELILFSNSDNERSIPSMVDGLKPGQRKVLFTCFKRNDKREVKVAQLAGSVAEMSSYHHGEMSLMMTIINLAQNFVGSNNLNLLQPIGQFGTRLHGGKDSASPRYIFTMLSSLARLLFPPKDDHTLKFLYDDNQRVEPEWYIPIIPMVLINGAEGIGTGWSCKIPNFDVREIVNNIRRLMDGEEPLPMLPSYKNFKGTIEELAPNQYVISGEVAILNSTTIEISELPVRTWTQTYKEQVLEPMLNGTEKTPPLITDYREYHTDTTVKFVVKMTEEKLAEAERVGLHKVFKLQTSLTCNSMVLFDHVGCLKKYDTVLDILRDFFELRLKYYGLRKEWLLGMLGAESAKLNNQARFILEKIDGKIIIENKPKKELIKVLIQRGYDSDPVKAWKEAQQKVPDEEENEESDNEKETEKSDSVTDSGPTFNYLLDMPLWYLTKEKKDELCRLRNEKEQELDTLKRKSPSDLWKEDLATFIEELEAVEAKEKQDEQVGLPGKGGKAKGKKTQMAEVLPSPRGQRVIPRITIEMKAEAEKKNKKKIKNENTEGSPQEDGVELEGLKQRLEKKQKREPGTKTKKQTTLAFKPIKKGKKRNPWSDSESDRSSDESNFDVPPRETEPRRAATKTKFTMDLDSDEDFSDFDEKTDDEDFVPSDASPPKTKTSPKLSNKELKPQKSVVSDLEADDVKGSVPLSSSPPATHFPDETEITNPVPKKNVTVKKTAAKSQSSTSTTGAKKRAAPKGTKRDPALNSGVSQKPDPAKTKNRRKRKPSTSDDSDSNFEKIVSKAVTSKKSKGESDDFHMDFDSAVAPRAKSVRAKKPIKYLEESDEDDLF
Assay: Inhibition of human topoisomerase 2alpha assessed as reduction in enzyme-mediated relaxation of negatively supercoiled pRYG DNA at 100 uM incubated for 30 mins by ethidium bromide staining based gel electrophoresis method
Active and inactive are the calls of the source. The rule behind the calls is not given here.
Classes used: yes for active, no for inactive

INSERT INTO results (smiles_representation, group_label) VALUES
  ('COc1ccc(-c2ccc(-c3nc4ccccn4c3NC(C)(C)C)cc2)cc1', 'no'),
  ('CC(C)(C)Nc1c(-c2ccc(-c3ccc(Cl)cc3)cc2)nc2ccccn12', 'no'),
  ('COc1ccc(-c2ccc3nc(-c4ccc(Cl)cc4)c(NC(C)(C)C)n3c2)cc1', 'yes'),
  ('CC(C)(C)Nc1c(-c2ccc(Cl)cc2)nc2ccc(-c3ccc(F)cc3)cn12', 'yes'),
  ('CC(=O)c1ccc(-c2ccc(-c3nc4cnccn4c3NC(C)(C)C)cc2)cc1', 'yes'),
  ('CC(C)(C)Nc1c(-c2ccc(Cl)cc2)nc2ccc(-c3ccccc3)cn12', 'yes'),
  ('COc1ccc(-c2nc3ccc(-c4ccccc4)cn3c2NC(C)(C)C)cc1', 'yes'),
  ('CC(C)(C)Nc1c(-c2ccc(-c3ccc(F)cc3)cc2)nc2cnccn12', 'no'),
  ('CC(C)(C)Nc1c(-c2ccc(-c3ccccc3)cc2)nc2cnccn12', 'yes'),
  ('Cc1ccc(-c2ccc3nc(-c4ccc(Cl)cc4)c(NC(C)(C)C)n3c2)cc1', 'yes');

###

Molecular target: DNA topoisomerase 2-alpha (Homo sapiens)
Experiment: Poisoning activity against human topoisomerase 2alpha assessed as induction of linear DNA formation at 100 uM incubated for 20 mins using small circular supercoiled pHOT DNA substrate by ethidium bromide staining based gel electrophoresis method
Active and inactive are the calls of the source. No cut-off for these calls is given here.
Labels: active, inactive

INSERT INTO results (molecule, group_label) VALUES
  ('Cc1ccc(-c2ccc3nc(-c4ccc(Cl)cc4)c(NC(C)(C)C)n3c2)cc1', 'inactive'),
  ('COc1cc([C@@H]2c3cc4c(cc3[C@@H](O[C@@H]3O[C@@H]5CO[C@@H](C)O[C@H]5[C@H](O)[C@H]3O)[C@H]3COC(=O)[C@H]23)OCO4)cc(OC)c1O [ETOPOSIDE]', 'active'),
  ('COc1ccc(-c2nc3ccc(-c4ccccc4)cn3c2NC(C)(C)C)cc1', 'inactive'),
  ('CC(C)(C)Nc1c(-c2ccc(Cl)cc2)nc2ccc(-c3ccccc3)cn12', 'inactive'),
  ('COc1ccc(-c2ccc3nc(-c4ccc(Cl)cc4)c(NC(C)(C)C)n3c2)cc1', 'inactive'),
  ('CC(C)(C)Nc1c(-c2ccc(Cl)cc2)nc2ccc(-c3ccc(F)cc3)cn12', 'inactive');
